system: Bacillus subtilis; experiment: Antibacterial activity against Bacillus subtilis NCIM 2010 at 3 ug/ml measured after 12 hrs by spectrophotometric method; assay type: functional; conditions: NCIM 2010, 12 h
QUANTITY KIND: inhibition at 3 µg/mL (%)
Expressed in %, but write only the number.

The examples below pair each entry with its known result.
• CC(=O)NC[C@H]1CN(c2ccc(N3CC4(COC4)C3)c(F)c2)C(=O)O1 = 88.8
• O=C1O[C@@H](CNC(=S)Nc2cccc(C(F)(F)F)c2)CN1c1ccc(N2CC3(COC3)C2)c(F)c1 = 65.9
• O=C1O[C@@H](CNS(=O)(=O)c2cc([N+](=O)[O-])ccc2Cl)CN1c1ccc(N2CC3(COC3)C2)c(F)c1 = 47
• O=C1O[C@@H](CNC(=S)Nc2ccc(Cl)cc2)CN1c1ccc(N2CC3(COC3)C2)c(F)c1 = 24.1
• COc1ccc(NC(=S)NC[C@H]2CN(c3ccc(N4CC5(COC5)C4)c(F)c3)C(=O)O2)cc1 = 77.9

`CC1(C)[C@@]2(C)CC[C@]1(C(=O)NC[C@H]1CN(c3ccc(N4CC5(COC5)C4)c(F)c3)C(=O)O1)OC2=O` yielded inhibition at 3 µg/mL of 40.5

`O=C(NC[C@H]1CN(c2ccc(N3CC4(COC4)C3)c(F)c2)C(=O)O1)c1ccc(C(F)(F)F)cc1` yielded inhibition at 3 µg/mL of 65.4

OC1(CNc2ccc(N3CCOCC3)c(F)c2)CCN(Cc2ccccc2)C1 (stereo not given) yielded inhibition at 3 µg/mL of 44.7

O=C1OC2(CCN(Cc3ccccc3)C2)CN1c1ccc(N2CCOCC2)c(F)c1 (stereo not given) yielded inhibition at 3 µg/mL of 24.5

`O=C1O[C@@H](CNC(=O)C23CC4CC(CC(C4)C2)C3)CN1c1ccc(N2CC3(COC3)C2)c(F)c1` yielded inhibition at 3 µg/mL of 51.3

* * *

system: Escherichia coli; assay: Antibacterial activity against Escherichia coli NCIM 2688 measured after 8 hrs by spectrophotometric method; assay type: functional; settings: NCIM 2688, 8 h
The threshold is 0.6 µg/mL. Values of IC50 beneath it are tagged true (1); values meeting or exceeding it are tagged false (0).

The following compounds have reported results that may help.
* O=C(NC[C@H]1CN(c2ccc(N3CC4(COC4)C3)c(F)c2)C(=O)O1)Nc1ccc(Cl)cc1 | false (0)
* N#Cc1ccc(NC(=S)NC[C@H]2CN(c3ccc(N4CC5(COC5)C4)c(F)c3)C(=O)O2)cc1 | false (0)
* O=C(NC[C@H]1CN(c2ccc(N3CC4(COC4)C3)c(F)c2)C(=O)O1)c1cccnc1 | false (0)
* O=C1O[C@@H](CNC(=S)Nc2cccc(C(F)(F)F)c2)CN1c1ccc(N2CC3(COC3)C2)c(F)c1 | true (1)

Asked: Is it true that IC50 reported for `O=C1O[C@@H](CNC(=S)Nc2ccc([N+](=O)[O-])cc2)CN1c1ccc(N2CC3(COC3)C2)c(F)c1` is less than 0.6 µg/mL?
Given back: false (0)

Asked: Is it true that IC50 reported for CC(=O)NC[C@H]1CN(c2ccc(N3CCOCC3)c(F)c2)C(=O)O1 [LINEZOLID] is less than 0.6 µg/mL?
Given back: true (1)

Asked: Is it true that IC50 reported for CC(=O)N1CCC2(C1)CN(c1ccc(N3CCOCC3)c(F)c1)C(=O)O2 (stereo not given) is less than 0.6 µg/mL?
Given back: false (0)

Asked: Is it true that IC50 reported for `CC(C)NC(=S)NC[C@H]1CN(c2ccc(N3CC4(COC4)C3)c(F)c2)C(=O)O1` is less than 0.6 µg/mL?
Given back: false (0)

Asked: Is it true that IC50 reported for OC1(CNc2ccc(N3CCOCC3)c(F)c2)CCN(Cc2ccccc2)C1 (stereo not given) is less than 0.6 µg/mL?
Given back: false (0)

Asked: Is it true that IC50 reported for `CC(=O)NC[C@H]1CN(c2ccc(C3=C[C@H]4CC[C@@H](C3)N4C(=O)OC(C)(C)C)c(F)c2)C(=O)O1` is less than 0.6 µg/mL?
Given back: true (1)

Asked: Is it true that IC50 reported for `O=C1O[C@@H](CNS(=O)(=O)c2ccc(Cl)s2)CN1c1ccc(N2CC3(COC3)C2)c(F)c1` is less than 0.6 µg/mL?
Given back: false (0)

Asked: Is it true that IC50 reported for O=C1OC2(CCN(Cc3ccccc3)C2)CN1c1ccc(N2CCOCC2)c(F)c1 (stereo not given) is less than 0.6 µg/mL?
Given back: false (0)

Asked: Is it true that IC50 reported for `O=C1O[C@@H](CNS(=O)(=O)c2cc(Cl)cc(Cl)c2)CN1c1ccc(N2CC3(COC3)C2)c(F)c1` is less than 0.6 µg/mL?
Given back: false (0)

Asked: Is it true that IC50 reported for `O=C(NC[C@H]1CN(c2ccc(N3CC4(COC4)C3)c(F)c2)C(=O)O1)c1ccc(C(F)(F)F)cc1` is less than 0.6 µg/mL?
Given back: false (0)
